system: KM12 colon; assay: NCI tumour cell line growth inhibition, 48 h; in the data active = GI50 below about 0.43 µM; inactive = the rest
Choose one outcome from this list and give only that: active, inactive

{"columns": ["compound", "assigned_class"],
 "data": [
  ["CCc1nc(-n2c(CC)nc3ccccc3c2=O)nc(N)c1-c1ccc(Cl)cc1", "inactive"],
  ["Cc1ccc(Nc2[nH]c(C(=O)c3ccc(Cl)cc3)c(N)c2C(=S)Nc2ccccc2)nc1", "inactive"],
  ["CCCCCCCCCCCCOC1C(CNCC2OC3OC(C)(C)OC3C2NC(=O)Nc2ccc(C(F)(F)F)cc2)OC2OC(C)(C)OC21 (stereo not drawn)", "inactive"],
  ["O=C1OCC2=C1C(c1cccc(C(F)(F)F)c1)c1cc3c(cc1N2CCO)OCO3 (stereo not drawn)", "inactive"],
  ["COc1ccc2c(O)c(/C=C3\\N=Nc4ncccc43)oc2c1C[C@H]1CCNC[C@H]1F", "active"],
  ["NC(=O)c1ccc2nc(-c3ccc(C4(N)CCC4)cc3)c(-c3ccccc3)n2n1", "inactive"]
]}

Exercise: Kindly provide the recorded test outcome for the following compound: "O=C(CCc1ccco1)NC1CCN(CC2(c3ccc(Cl)cc3)CCC2)CC1"
Key: inactive

Exercise: Let us now turn to "CC(C)(C)CC(C)(C)N(CSc1ccc(Cl)cc1)CSc1ccc(Cl)cc1"
Key: inactive

Exercise: Item: CN1C(=O)N(C)C2C1NN=c1s/c(=C\c3c[nH]c4ccccc34)c(=O)n12 (stereo not drawn)
Key: active

Exercise: Follow-up entry: "COc1cc(C(C)(C)C)cc(OC)c1C(O)(c1c(OC)cc(C(C)(C)C)cc1OC)c1c(OC)cc(C(C)(C)C)cc1OC"
Key: active

Exercise: Now the compound "CCN1/C(=C/C=C/C=C/c2sc3ccccc3[n+]2CC)Sc2ccccc21"
Key: active

Exercise: Let us now turn to "Cc1cc(Nc2cc(CN3CCOCC3)c3nc(C)c(Cc4ccc(Cl)cc4F)n3n2)n[nH]1"
Key: active

Exercise: Now give it for "COc1cc2cn3c4ccc(O)cc4nc(N)c3c2cc1OC" too.
Key: inactive

Exercise: Param item: OC(COc1cccc2ccccc12)CN1CCN(c2ccc(Cl)cc2)CC1 (stereo not drawn)
Key: inactive

Exercise: Likewise for "COc1ccc(S(=O)(=O)NC2=NCCN2C(=S)SN2CCn3c2nsc3=S)cc1OC" ?
Key: inactive

Exercise: And the next one, COc1cccc2c1C(=O)c1c(O)c3c(c(O)c1C2=O)C[C@@](O)(C(=O)CO)C[C@@H]3OC1CC(OC(C)=O)C(OC(C)=O)C(C)O1 (stereo partly drawn) ?
Key: inactive

Exercise: Try the compound "C[C@@H]1[C@H]2[C@H](C=C3[C@@H]4CC[C@H]5Cc6nc7c(nc6C[C@]5(C)[C@H]4C[C@@H](O)[C@@]32C)C[C@@H]2CC[C@H]3C4=C[C@@H]5O[C@@]6(CC[C@](C)(CO)O6)[C@@H](C)[C@@]5(O)[C@@]4(C)[C@H](O)C[C@@H]3[C@@]2(C)C7)O[C@]12CCC(C)(C)O2"
Key: inactive

Exercise: Now try "COc1ccc(-c2nn(-c3ccc(NC(=O)Nc4ccc(Cl)c(Cl)c4)cc3)cc2-c2ccncc2)cc1Cl" .
Key: inactive

###

test system: IGROV1 ovarian; assay: NCI tumour cell line growth inhibition, 48 h
Entries and their measured TGI follow.
Response body: numeric value in µM, unit text excluded.

Look over these answered cases.
{"columns": ["molecule", "quantity_unit", "TGI"],
 "data": [
  ["COc1cc(/C=C2\\CCCC3C2=Nc2ccccc2NC3c2cc(OC)c(OC)c(OC)c2)cc(OC)c1OC (centres undefined)", "µM", 18.5],
  ["C=CC[N+]1(CCO)CCN=C1CCCCCCCCCCCCC (centres undefined)", "µM", 1.25]
]}

Exercise: Given "O=C(CCc1ccco1)NC1CCN(CC2(c3ccc(Cl)cc3)CCC2)CC1" , state its recorded TGI.
Key: 45.8
